| compound | readout-unit | melting point |
| --- | --- | --- |
| CSC1Cc2cc(Cl)ccc2C1=O (stereo not shown) [Example 1, 5-Chloro-2-methylsulfanylindan-1-one] | °C | 90 |
| C[S+]([O-])C1Cc2cc(Cl)ccc2C1=O (stereo not shown) [Example 9, 5-chloro-2-methanesulfinylindan-1-one] | °C | 228.87 |
| O=C1c2ccc(Cl)cc2CC1S(=O)(=O)c1ccccc1 (stereo not shown) [Example 4, 2-benzenesulfonyl-5-chloroindan-1-one] | °C | 133 |
| O=C1c2ccc(Cl)cc2CC1Sc1ccccc1 (stereo not shown) [Example 3, 5-chloro-2-phenylsulfanylindan-1-one] | °C | 89 |

Data provenance: patent US6946492B2
